Assay: recombinant UMI read abundance after kanamycin selection (control-corrected) (log10(CPM+1)); higher = more efficient recombination; extreme values may be limits of the assay; sequences stand for … in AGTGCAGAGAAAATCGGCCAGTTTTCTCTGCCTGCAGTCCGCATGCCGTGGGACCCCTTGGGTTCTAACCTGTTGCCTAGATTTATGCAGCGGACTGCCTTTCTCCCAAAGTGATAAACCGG…AGGTTGGTTTCACT; site = the 11-nt donor;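 further: IS621 bridge recombinase in Escherichia coli cells against a fixed T5 target plasmid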
If the reported recombinant UMI read abundance (log10) equals or exceeds 0.04, assign condition met. If not, assign condition not met.

POLYMER SEQUENCE	CAT
TGATCATCATGGACCGGTTTTCCCGGTAATCCGTATTTGCG (site CGATCATCTAG)	condition not met
CAAGTATCATGGACCGGTTTTCCCGGTAATCCGTATTTGAC (site CTAGTATCTGT)	condition met
TACTTGACATGGACCGGTTTTCCCGGTAATCCGTATTTGCT (site TACGTGACTAG)	condition met
TCATACTCATGGACCGGTTTTCCCGGTAATCCGTATTTGCG (site TCATACTCTTG)	condition met
TCAGAGACATGGACCGGTTTTCCCGGTAATCCGTATTTGCG (site TCAGAGGCTCG)	condition met
TAGTACTCATGGACCGGTTTTCCCGGTAATCCGTATTTGAT (site TAGTACTCTAT)	condition met
AATGTATCATGGACCGGTTTTCCCGGTAATCCGTATTTGAC (site AATGTCTCTGT)	condition not met
GCTTGCCCATGGACCGGTTTTCCCGGTAATCCGTATTTGTT (site GCTTGCCCTAG)	condition not met

Task: Test whether the sequence CTTGTCTCATGGACCGGTTTTCCCGGTAATCCGTATTTGTA (site CTTTTCTCTTA) records recombinant UMI read abundance (log10) of 0.04 or higher.
Output: condition not met

Task: # iterate: TCGCCTTCATGGACCGGTTTTCCCGGTAATCCGTATTTGGT (site TAGCCTTCTAC)
Output: condition not met

Task: # iterate: GTATGCACATGGACCGGTTTTCCCGGTAATCCGTATTTGTC (site GTATGCACTTA)
Output: condition met

Task: # iterate: AGAAAGGCATGGACCGGTTTTCCCGGTAATCCGTATTTGTT (site AGAAAGGCTAA)
Output: condition met

Task: # iterate: GGTACTTCATGGACCGGTTTTCCCGGTAATCCGTATTTGTT (site GGTACGTCTAA)
Output: condition not met

Task: # iterate: TGGCCGGCATGGACCGGTTTTCCCGGTAATCCGTATTTGGA (site TGGCCGGCTAC)
Output: condition not met

Task: # iterate: TTGGAATCATGGACCGGTTTTCCCGGTAATCCGTATTTGCA (site TTGGAATCTTG)
Output: condition met
